Let's look at some variants and their measured self-cleavage.
B1: CPEB3 Ribozyme (parent)
chain: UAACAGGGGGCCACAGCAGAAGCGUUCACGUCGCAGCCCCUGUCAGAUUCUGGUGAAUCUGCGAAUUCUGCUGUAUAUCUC

- Variants of: B1
- testDescription: self-cleavage, relative activity (ratio to wild type); higher = more cleavage; in vitro, sequencing

[
  {
    "mutationList": "A3C U43A",
    "resultValue": 1.24
  },
  {
    "mutationList": "A18G G33A",
    "resultValue": 0.23
  },
  {
    "mutationList": "U51A U80G",
    "resultValue": 1.18
  },
  {
    "mutationList": "U66C A75U",
    "resultValue": 0.4
  }
]

In the following, a different variant is considered.
Given the variant U72A C81G , write its reported self-cleavage. 1.24

Origin of measurements: the RNAGym collection of RNA variant scans (doi:10.1093/nar/gkz1192)
